Data provenance: ChEMBL document CHEMBL1201862

# EXPERIMENTAL_TARGET: Histone-lysine N-methyltransferase NSD2 (Homo sapiens)
# Sequence (O96028 whole entry): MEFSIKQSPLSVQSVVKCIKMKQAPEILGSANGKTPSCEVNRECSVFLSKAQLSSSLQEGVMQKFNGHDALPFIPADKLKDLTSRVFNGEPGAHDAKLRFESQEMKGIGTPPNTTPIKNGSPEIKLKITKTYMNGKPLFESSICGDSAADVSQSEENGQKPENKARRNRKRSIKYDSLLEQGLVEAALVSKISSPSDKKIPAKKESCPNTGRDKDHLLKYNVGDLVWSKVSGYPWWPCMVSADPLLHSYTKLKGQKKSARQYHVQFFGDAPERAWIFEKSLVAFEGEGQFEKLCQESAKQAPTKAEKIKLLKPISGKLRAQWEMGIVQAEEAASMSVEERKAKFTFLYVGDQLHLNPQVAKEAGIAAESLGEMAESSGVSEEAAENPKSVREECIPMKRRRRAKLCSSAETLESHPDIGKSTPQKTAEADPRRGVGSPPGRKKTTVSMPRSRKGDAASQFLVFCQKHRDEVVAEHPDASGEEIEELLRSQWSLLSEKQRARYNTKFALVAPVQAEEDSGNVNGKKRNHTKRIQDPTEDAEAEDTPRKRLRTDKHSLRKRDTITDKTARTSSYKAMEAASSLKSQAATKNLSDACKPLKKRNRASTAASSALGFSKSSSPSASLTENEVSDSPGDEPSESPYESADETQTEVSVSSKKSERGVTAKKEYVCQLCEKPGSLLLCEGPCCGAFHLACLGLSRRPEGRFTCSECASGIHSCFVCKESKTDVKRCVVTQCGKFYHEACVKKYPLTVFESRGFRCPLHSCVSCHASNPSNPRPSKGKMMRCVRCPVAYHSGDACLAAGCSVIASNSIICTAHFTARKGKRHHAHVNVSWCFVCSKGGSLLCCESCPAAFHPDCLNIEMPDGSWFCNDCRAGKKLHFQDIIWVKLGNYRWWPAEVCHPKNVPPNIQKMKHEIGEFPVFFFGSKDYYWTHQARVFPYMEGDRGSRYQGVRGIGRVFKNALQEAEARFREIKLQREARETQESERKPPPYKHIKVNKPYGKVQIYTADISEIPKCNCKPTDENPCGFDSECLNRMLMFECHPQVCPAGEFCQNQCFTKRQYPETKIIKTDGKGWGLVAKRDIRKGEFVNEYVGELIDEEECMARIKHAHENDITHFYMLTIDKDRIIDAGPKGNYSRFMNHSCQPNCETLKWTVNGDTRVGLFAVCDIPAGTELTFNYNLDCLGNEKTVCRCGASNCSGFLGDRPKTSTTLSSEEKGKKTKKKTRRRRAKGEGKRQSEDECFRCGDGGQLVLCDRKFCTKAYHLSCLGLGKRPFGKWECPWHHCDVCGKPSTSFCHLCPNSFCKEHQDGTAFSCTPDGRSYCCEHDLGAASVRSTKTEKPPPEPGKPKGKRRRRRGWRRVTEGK
# Type: biochemical
Active and inactive are the calls of the source.
Possible outcomes: active, inactive

| SMILES_STR | DISCRETE_LABEL |
| --- | --- |
| CCN(CC)CCCNc1ccc2ncn3c4ccc(O)cc4c(=O)c1c23 | active |
| O=C(CN1C(=O)/C(=C/c2ccco2)SC1=S)Nc1ccc(O)c(C(=O)O)c1 | inactive |
| CCNCCNc1ccc(Cl)cc1[N+](=O)[O-] | inactive |
| c1coc(-c2nnc(-c3ccco3)nn2)c1 | active |
| O=C(/C=C/c1ccco1)NC(=S)Nc1ccc(C(=O)O)cc1 | active |
| Cc1nc(-[n+]2nc(-c3ccncc3)nn2-c2ccccc2)sc1C | inactive |
| COc1ccc(CC2=CC(=O)c3ccccc3C2=O)cc1 | active |
| CCCCN(CC)CCNC(=O)c1cc2c(-c3ccccc3F)nn(C)c2s1 | inactive |

* * *

# EXPERIMENT_NOTES: microbe, parasite or virus in culture
# Format: functional
# TEST_CONTEXT: Mycobacterium tuberculosis
Active and inactive are the calls of the source.
Below, each entry is listed with its recorded CC50.

| MOLECULE | CC50 |
| --- | --- |
| COc1ccc(C2Oc3ccccc3C3=C2C(c2cccs2)n2ncnc2N3)cc1 (stereo not given) | 16.8 µM (active) |
| CC1(C)CC(=O)C2=C(C1)N=C(Nc1nc3ccccc3o1)NC2c1ccccn1 (stereo not given) | > 40 µM (active) |
| CN(C)c1nc(NCc2ccccc2)nc(N/N=C/c2ccc3c(c2)OCO3)n1 | > 40 µM (active) |
| CCOc1cccc(/C=C/c2ccc3cccc(O)c3n2)c1O | 35.7 µM (active) |
| COc1ccc(-n2nc3c(c2NC(=O)CCl)CSC3)cc1 | 18 µM (active) |

* * *

Below, each entry is listed with its recorded IC50.
# EXPERIMENTAL_TARGET: UniProtKB P03070
# Sequence (P03070 whole entry): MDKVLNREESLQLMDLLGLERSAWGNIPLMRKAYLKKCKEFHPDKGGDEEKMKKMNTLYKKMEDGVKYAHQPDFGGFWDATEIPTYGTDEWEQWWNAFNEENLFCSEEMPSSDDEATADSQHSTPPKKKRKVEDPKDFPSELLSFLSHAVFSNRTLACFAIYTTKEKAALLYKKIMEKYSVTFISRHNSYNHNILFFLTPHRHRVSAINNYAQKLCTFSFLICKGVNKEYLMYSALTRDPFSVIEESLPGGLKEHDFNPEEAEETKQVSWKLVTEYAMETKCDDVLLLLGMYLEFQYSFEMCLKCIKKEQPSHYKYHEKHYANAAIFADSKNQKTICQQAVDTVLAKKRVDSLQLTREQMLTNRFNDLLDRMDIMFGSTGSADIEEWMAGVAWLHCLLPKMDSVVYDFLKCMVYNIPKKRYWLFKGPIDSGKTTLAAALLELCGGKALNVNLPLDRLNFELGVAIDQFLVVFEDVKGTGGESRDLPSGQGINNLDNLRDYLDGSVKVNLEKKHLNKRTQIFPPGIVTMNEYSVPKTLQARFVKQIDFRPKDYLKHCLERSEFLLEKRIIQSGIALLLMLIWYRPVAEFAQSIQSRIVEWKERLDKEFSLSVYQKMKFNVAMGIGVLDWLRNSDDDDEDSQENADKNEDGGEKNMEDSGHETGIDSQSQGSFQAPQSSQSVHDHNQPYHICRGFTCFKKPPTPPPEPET
# Assay type: functional, Betapolyomavirus macacae
The source made the active and inactive calls.
MEASURE_NAME: IC50

| MOLECULE | EXPERIMENTAL_TARGET | MEASURE_NAME | OBSERVED_VALUE |
| --- | --- | --- | --- |
| O=C(CN1C(=O)/C(=C/c2ccco2)SC1=S)Nc1ccc(O)c(C(=O)O)c1 | UniProtKB P03070 | IC50 | 54.3 µM (active) |
| COc1cc(/C=N/Nc2nc3ccccc3o2)cc(OC)c1O | UniProtKB P03070 | IC50 | 8.87 µM (active) |
| Cc1ccc2oc(=O)c(/C=C(\O)C(C)(C)C)nc2c1 | UniProtKB P03070 | IC50 | 11 µM (active) |
| Cc1cc(-c2nnc(S)n2/N=C/c2cccs2)[nH]n1 | UniProtKB P03070 | IC50 | 55 µM (active) |
| CSC1=NS(=O)(=O)c2c(C)nn(C)c2S1 | UniProtKB P03070 | IC50 | 32.8 µM (active) |
| CCOc1cc(/C=C2\SC(=O)N=C2N)ccc1O | UniProtKB P03070 | IC50 | 4.73 µM (active) |
| O=C(N/N=C/c1ccc(OC(=O)c2ccco2)cc1)c1ccc[n+]([O-])c1 | UniProtKB P03070 | IC50 | 55.5 µM (active) |
| Cn1cccc1/C=N/N1CCN(c2ccccn2)CC1 | UniProtKB P03070 | IC50 | 5.17 µM (active) |
| CCN(CC)c1ccc(NC(=O)CSc2nnc3nc(C)cc(C)n23)cc1 | UniProtKB P03070 | IC50 | 19.8 µM (active) |
| CCCSc1nc(O)c(C(c2ccc(OC)c(O)c2)c2c(O)nc(SCCC)n(C)c2=O)c(=O)n1C | UniProtKB P03070 | IC50 | > 100 µM (active) |
| O=C(O)C1Nc2ccc(OC(F)(F)F)cc2C2C=CCC12 (stereo not drawn) | UniProtKB P03070 | IC50 | 12.7 µM (active) |
| c1ccc(SSc2ccccn2)nc1 | UniProtKB P03070 | IC50 | > 100 µM (active) |
| CCOc1cc(N2CCOCC2)c(OCC)cc1NC(C)C(=O)N1CCC(C)CC1 (stereo not drawn) | UniProtKB P03070 | IC50 | 17.1 µM (active) |
